The measurements presented in this section are drawn from paper PMC8114186.

List of IC50 tested on NDM-1 (Klebsiella pneumoniae, UniProt C7C422).
Sequence (C7C422 29-270, looked up, species assumed): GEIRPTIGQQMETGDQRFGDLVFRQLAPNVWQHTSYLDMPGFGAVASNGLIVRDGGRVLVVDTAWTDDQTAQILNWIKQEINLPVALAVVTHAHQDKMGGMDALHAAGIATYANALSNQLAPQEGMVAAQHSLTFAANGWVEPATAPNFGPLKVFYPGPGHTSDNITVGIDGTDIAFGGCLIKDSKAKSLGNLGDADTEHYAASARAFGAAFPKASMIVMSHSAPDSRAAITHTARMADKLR
measure: IC50 (µM)

| compound | experimentalTarget | limitOperator | assayResult |
| --- | --- | --- | --- |
| O=C(O)c1cccc2oc(-c3c(O)ccc4ccccc34)nc12 [Compound 7] | NDM-1 (Klebsiella pneumoniae, UniProt C7C422) | = | 8.5 |
| O=C(O)c1cccc2oc(-c3ccc4ccc(OCc5ccccc5)cc4c3O)nc12 [Compound 8] | NDM-1 (Klebsiella pneumoniae, UniProt C7C422) | = | 2.3 |
| O=C(O)c1cccc2oc(-c3ccc4ccccc4c3O)nc12 [Compound 5] | NDM-1 (Klebsiella pneumoniae, UniProt C7C422) | = | 0.74 |
| O=C(O)c1cccc2oc(-c3cc4ccccc4cc3O)nc12 [Compound 6] | NDM-1 (Klebsiella pneumoniae, UniProt C7C422) | = | 9.8 |
| O=C(O)c1cccc2oc(-c3ccc4c(OCc5ccccc5)cccc4c3O)nc12 [Compound 10] | NDM-1 (Klebsiella pneumoniae, UniProt C7C422) | > | 40 |
